Documented IC50 across a set of molecules
molecular target: UniProt P00803; experiment: Biochemical SPase activity assay (fluorogenic peptide substrate), E. coli enzyme
Numbered stars: 1 amine (or outer) side, 2 acyl side, 3 side chain; on linkers, the order of the positions; unused ones are H or OH. Square brackets hold non-standard residues; d marks the D form. Peptide text beside a SMILES is read from it. * marks the point of attachment. ξ: configuration not given here. boroAla((+)-pinanediol) = C[C@H](N*)B1O[C@@H]2C[C@@H]3C[C@@H](C3(C)C)[C@]2(C)O1; Biphenylcarbonyl(4'-Bu) = CCCCc1ccc(-c2ccc(C(=O)*)cc2)cc1; X1 = C[C@H](N*)B1OC2C[C@@H]3C[C@@H](C3(C)C)[C@]2(C)O1; Benzoyl(4-(4-Cl-Ph)) = O=C(c1ccc(-c2ccc(Cl)cc2)cc1)*; ξPro(4S-NH2) = O=C(C1C[C@H](N[*:3])CN1[*:1])[*:2]; boroAla = C[C@H](N*)B(O)O; Dab = NCC[C@H](N)C(=O)O; Dap = NC[C@H](N)C(=O)O; βAla = NCCC(=O)O

molecule	target under test	unit of measurement	IC50
CCCCc1ccc(-c2ccc(C(=O)NCCC(=O)N[C@@H](CCCCN)C(=O)N[C@H](C(=O)N[C@@H](C)C(=O)N[C@@H](CCCCN)C(=O)N[C@@H](C)B3OC4C[C@@H]5C[C@@H](C5(C)C)[C@]4(C)O3)[C@@H](C)O)cc2)cc1 (stereo partly shown) [Compound 193] ({Biphenylcarbonyl(4'-Bu)-βAla}-KTAK-X1)	UniProt P00803	nM	15
CCCCc1ccc(-c2ccc(C(=O)N[C@@H](CCN)C(=O)N[C@H](C(=O)N[C@@H](C)C(=O)N[C@@H](CCCCN)C(=O)N[C@@H](C)B3O[C@@H]4C[C@@H]5C[C@@H](C5(C)C)[C@]4(C)O3)[C@@H](C)O)cc2)cc1 [Compound 187] ({Biphenylcarbonyl(4'-Bu)}-[Dab]TAK-{boroAla((+)-pinanediol)})	UniProt P00803	nM	170
CCCCc1ccc(-c2ccc(C(=O)N3C[C@@H](N)CC3C(=O)N[C@H](C(=O)N[C@@H](C)C(=O)N[C@@H](CC(N)=O)C(=O)N[C@@H](C)B3OC4C[C@@H]5C[C@@H](C5(C)C)[C@]4(C)O3)[C@@H](C)O)cc2)cc1 (stereo partly drawn) [Compound 139] ({Biphenylcarbonyl(4'-Bu)}-[ξPro(4S-NH2)]TAN-X1)	UniProt P00803	nM	3.4
C[C@H](NC(=O)[C@H](CCCCN)NC(=O)[C@H](C)NC(=O)[C@@H](NC(=O)[C@H](CN)NC(=O)c1ccc(-c2ccc(Cl)cc2)cc1)[C@@H](C)O)B(O)O [Compound 175] ({Benzoyl(4-(4-Cl-Ph))}-[Dap]TAK-boroAla)	UniProt P00803	nM	5.5

---

target: S. aureus SPase (Staphylococcus aureus, UniProt P0A070); assay: biochemical
Sequence (P0A070 whole entry): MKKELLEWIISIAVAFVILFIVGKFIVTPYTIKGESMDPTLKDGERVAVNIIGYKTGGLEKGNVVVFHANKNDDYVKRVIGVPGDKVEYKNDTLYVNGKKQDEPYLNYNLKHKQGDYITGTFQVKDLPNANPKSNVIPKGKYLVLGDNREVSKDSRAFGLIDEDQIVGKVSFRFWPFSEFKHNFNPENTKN
Square brackets hold non-standard residues; d marks the D form. Peptide text beside a SMILES is read from it. * marks the point of attachment. boroAla((+)-pinanediol) = C[C@H](N*)B1O[C@@H]2C[C@@H]3C[C@@H](C3(C)C)[C@]2(C)O1; Biphenylcarbonyl(4'-Bu) = CCCCc1ccc(-c2ccc(C(=O)*)cc2)cc1; Benzoyl(4-(4-Cl-Ph)) = O=C(c1ccc(-c2ccc(Cl)cc2)cc1)*; X16 = CC(C)(C)c1ccc(-c2ccc(C(=O)*)cc2)cc1; NMeK = CN[C@@H](CCCCN)C(=O)O; boroAla = C[C@H](N*)B(O)O; Dab = NCC[C@H](N)C(=O)O; Dap = NC[C@H](N)C(=O)O; boroGly = OB(O)CN*
attribute measured: IC50 (µM)

compound	numeric readout
CCCCc1ccc(-c2ccc(C(=O)N[C@@H]3CN[C@H](C(=O)N[C@H](C(=O)N[C@@H](C)C(=O)N[C@@H](CCCCN)C(=O)N[C@@H](C)B4OC5C[C@@H]6C[C@@H](C6(C)C)[C@]5(C)O4)[C@@H](C)O)C3)cc2)cc1 (some centres unmarked)	0.081
C[C@H](NC(=O)[C@H](CCCCN)NC(=O)[C@H](C)NC(=O)[C@@H](NC(=O)[C@H](CCN)NC(=O)c1ccc(-c2ccc(C(C)(C)C)cc2)cc1)[C@@H](C)O)B1O[C@@H]2C[C@@H]3C[C@@H](C3(C)C)[C@]2(C)O1 [Compound 231] (X16-[Dab]TAK-{boroAla((+)-pinanediol)})	0.095
CCCCc1ccc(-c2ccc(C(=O)N[C@H](CO)C(=O)N[C@H](C)C(=O)NCC(=O)N(C)[C@@H](CCCCN)C(=O)N[C@@H](C)C(=O)N[C@@H](CC(N)=O)C(=O)NCB(O)O)cc2)cc1 [Compound 120] ({Biphenylcarbonyl(4'-Bu)}-[dS][dA]G[NMeK]AN-boroGly)	0.1
CCCCc1ccc(Nc2ccc(C(=O)N[C@@H](CCN)C(=O)N[C@H](C(=O)N[C@@H](C)C(=O)N[C@@H](CCCCN)C(=O)N[C@@H](C)B3OC4C[C@@H]5C[C@@H](C5(C)C)[C@]4(C)O3)[C@@H](C)O)cc2)cc1 (some centres unmarked)	0.16
C[C@H](NC(=O)[C@H](CCCCN)NC(=O)[C@H](C)NC(=O)[C@@H](NC(=O)[C@H](CN)NC(=O)c1ccc(-c2ccc(Cl)cc2)cc1)[C@@H](C)O)B(O)O [Compound 175] ({Benzoyl(4-(4-Cl-Ph))}-[Dap]TAK-boroAla)	0.11
